- Measured Target: KDM4B (Homo sapiens, UniProt O94953)
- Measurement Protocol: FDH-coupled demethylase assay, KDM4B
- Type: biochemical
- Condition: increasing concentrations of α-KG; Lineweaver–Burk; read-out: Ki, competitive with α-KG, KDM4B
Observable: Ki (nM)
Reply numerically in nM, unit not repeated.

Task: Input "O=c1c(O)c(-c2cc(O)c(O)c(O)c2)oc2cc(O)cc(O)c12" , output reported Ki.
Output: 530

----------
- Measured Target: UniProtKB O94953
- Measurement Protocol: FDH-coupled demethylase assay, KDM4B
- Assay type: biochemical
- Condition: increasing concentrations of H3K9me3 peptide; read-out: Ki, non-competitive with H3K9me3 peptide, KDM4B
Observable: Ki (nM)
Reply numerically in nM, unit not repeated.

Task: Input "O=c1c(O)c(-c2cc(O)c(O)c(O)c2)oc2cc(O)cc(O)c12" , output reported Ki.
Output: 1010

----------
- Tested on: LNCaP cells
- Measurement Protocol: MTT assay, LNCaP
- Format: cell-based
- Condition: Homo sapiens, 72 h, 3 days, read-out: IC50, cell viability
Observable: pIC50
Worth noting: pIC50 values are minus log10 of concentrations stated in mol/L.

Task: Input O=c1c(O)c(-c2cc(O)c(O)c(O)c2)oc2cc(O)cc(O)c12 [Myricetin] , output reported pIC50.
Output: 4.73

----------
- Measured Target: UniProt:O94953
- Sequence (O94953 1-1096): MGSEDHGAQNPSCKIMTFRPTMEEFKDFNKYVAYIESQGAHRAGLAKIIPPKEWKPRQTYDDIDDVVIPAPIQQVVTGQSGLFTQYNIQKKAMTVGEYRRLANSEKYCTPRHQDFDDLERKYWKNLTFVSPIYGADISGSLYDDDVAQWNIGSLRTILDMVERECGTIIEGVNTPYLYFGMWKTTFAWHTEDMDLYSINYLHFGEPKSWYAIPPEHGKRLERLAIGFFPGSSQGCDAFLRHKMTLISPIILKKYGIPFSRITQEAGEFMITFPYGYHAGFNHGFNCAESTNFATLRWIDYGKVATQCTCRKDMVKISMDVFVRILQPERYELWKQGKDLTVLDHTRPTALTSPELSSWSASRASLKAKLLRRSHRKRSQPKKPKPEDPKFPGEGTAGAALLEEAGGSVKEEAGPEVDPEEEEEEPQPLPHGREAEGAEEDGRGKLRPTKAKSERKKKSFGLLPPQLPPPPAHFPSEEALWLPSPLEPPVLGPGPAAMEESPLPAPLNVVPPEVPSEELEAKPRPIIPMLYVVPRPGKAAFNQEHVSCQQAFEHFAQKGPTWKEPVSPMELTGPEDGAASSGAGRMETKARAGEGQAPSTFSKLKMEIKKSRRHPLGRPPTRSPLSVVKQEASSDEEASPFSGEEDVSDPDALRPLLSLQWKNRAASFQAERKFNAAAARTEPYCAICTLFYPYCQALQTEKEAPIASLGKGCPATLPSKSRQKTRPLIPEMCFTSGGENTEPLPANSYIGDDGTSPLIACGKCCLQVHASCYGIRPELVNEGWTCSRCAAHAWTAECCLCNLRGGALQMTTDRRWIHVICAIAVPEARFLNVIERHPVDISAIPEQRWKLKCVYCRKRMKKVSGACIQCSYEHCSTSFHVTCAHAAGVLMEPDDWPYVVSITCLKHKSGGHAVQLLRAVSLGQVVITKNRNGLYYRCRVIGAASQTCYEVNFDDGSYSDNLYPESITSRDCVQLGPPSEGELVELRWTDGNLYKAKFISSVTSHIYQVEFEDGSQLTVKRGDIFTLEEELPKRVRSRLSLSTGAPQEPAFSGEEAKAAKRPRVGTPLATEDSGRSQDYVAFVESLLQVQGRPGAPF
Observable: IC50 (nM)
Reply numerically in nM, unit not repeated.

Task: Quote UniProt:O94953 IC50 for entry "O=c1c(O)c(-c2ccc(O)c(O)c2)oc2cc(O)cc(O)c12" .
Output: 2400
